- assay.target: T1, human MR LBD (residues 727-984) containing a C808S mutation, 6xHis-GST fusion protein (human), P08235
- T1 chain: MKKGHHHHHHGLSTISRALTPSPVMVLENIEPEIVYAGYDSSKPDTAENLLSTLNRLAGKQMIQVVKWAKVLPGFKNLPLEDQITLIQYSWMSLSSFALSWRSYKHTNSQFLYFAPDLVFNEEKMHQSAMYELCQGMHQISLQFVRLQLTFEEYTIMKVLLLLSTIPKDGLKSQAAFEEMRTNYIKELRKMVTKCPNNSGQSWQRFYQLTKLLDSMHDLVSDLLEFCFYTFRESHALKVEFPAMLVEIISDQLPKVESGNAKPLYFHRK
- method.summary: AlphaScreen peptide competition; corticosterone
- measurement.context: modification not given
Please go through the items and note down their IC50.
Lab book: enter the figure in nM, no units written.

Query QEKHRILHKLLQNGN [SRC3-2] yields IC50 of 4600

# IC50 of KEKHKILHRLLQDSS [SRC2-2] = 2200

Looking up TERHKILHRLLQESS [SRC1-2] , I found its IC50 recorded as 1400

// field: IC50; key: KENNALLRYLLDRDD [SRC3-3] ; value = 1400

What the record says about SKDHQLLRYLLDKDE [SRC1-3] : IC50 is 1600
